targetSystem: protein kinase A, catalytic subunit
measurementProtocol: cell-based or functional assay
Where no end group is shown, it is not given here. Side-chain parts run from the residue outwards. [ ]: non-standard residue; d: D form. The star is where a group is joined. SO2‑IQ = 5-aminoethylsulfoneamide isoquinoline, O=S(=O)(NCCN*)c1cccc2cnccc12; hLeu = CC(C)CC[C@H](N)C(=O)O; Nle = CCCC[C@H](N)C(=O)O; Nva = CCC[C@H](N)C(=O)O; βAla = NCCC(=O)O
assayEndpoint: PKA IC50 (nM)

[P] RPR[Nle]E([βAla-SO2‑IQ])SF [PTR 6086]
[Q] RPR[Nva]E([βAla-SO2‑IQ])A[hLeu] [PTR 6152]
Qu. Pick the one with the larger PKA IC50: P vs Q Bench note: the answer is the label of the chosen record.
Ans. Q
